Biological target: T1, human MSLN-FL-his protein (human, UniProt Q13421 296-580)
T1 construct: made in HEK293E cells, purified on nickel column; also called hMSLN-FL-his; human MSLN full-length protein; not shown: His tag
T1 sequence (Q13421 other isoform, or with tags, fused parts or gaps): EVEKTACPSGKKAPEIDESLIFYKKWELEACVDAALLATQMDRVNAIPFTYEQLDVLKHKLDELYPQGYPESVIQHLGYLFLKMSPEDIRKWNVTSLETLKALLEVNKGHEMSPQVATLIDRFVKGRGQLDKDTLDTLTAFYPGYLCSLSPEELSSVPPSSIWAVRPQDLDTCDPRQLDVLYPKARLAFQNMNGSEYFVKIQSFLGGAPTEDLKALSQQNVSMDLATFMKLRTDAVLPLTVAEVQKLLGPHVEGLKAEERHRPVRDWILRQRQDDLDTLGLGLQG
Experiment: competitive ELISA; row Tab108 (R3); note: test concentration or dose not given here
assay-readout: competition rate (%)
Could you give me the number in %? Just the number is fine.

Reference set, count: 2
binder: Tab107 (YP3, hIgG1) (antibody, V domains shown, Control antibody; VH and VL recombined into human IgG1 CH and CL expression vectors; also called YP3 human IgG1 antibody) VH: QEQLVESGGGLVQPGASLTLTCTASGIDFSRYYMCWVRQAPGKGLEGIACIYIGGSGSTYYASWAKGRFTISKASSTTVTLQMTSLTAADTATYFCARGTNLNYIFRLWGPGTLVTVSS VL: DVVMTQTPSPVSAAVGGTVTIKCQASQSINNGLAWYQQKPGQPPRLLIYSASNLESGVPSRFKGSGSGTEFTLTISDLECDDAATYYCQCIWDGNSYVNAFGGGTEVVVRT
result: -80
//
binder: S009-F1.56.1 (antibody, human IgG1, kappa, V domains shown, human-murine chimeric antibody, human IgG1/kappa constant regions) VH: EVQLQQSGAEVVKPGASVKLSCTASGFNIRHTYMHWVKQRPEQGLEWIGRIDPANGNTEYDPKFQGKATITADTSSNTAYLQLSSLTSEDTAVYYCARDGWYIDVWGAGTTVTVSS VL: DIVMSQSPSSLAVSVGEKVTMSCKSSQSLLYSNNQKNYLAWYQQKPGQSPKLLIYWASTRESGVPDRFTGSGSGTDFTLTISSVKAEDLAVYYCQRYYSYPWTFGGGTKLEIKR
result: -36

Entry S009-F2.39.3 (antibody, human IgG1, kappa, V domains shown, human-murine chimeric antibody, human IgG1/kappa constant regions) VH: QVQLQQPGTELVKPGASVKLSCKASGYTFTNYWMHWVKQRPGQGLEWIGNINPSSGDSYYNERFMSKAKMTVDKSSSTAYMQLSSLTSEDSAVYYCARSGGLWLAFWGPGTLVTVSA VL: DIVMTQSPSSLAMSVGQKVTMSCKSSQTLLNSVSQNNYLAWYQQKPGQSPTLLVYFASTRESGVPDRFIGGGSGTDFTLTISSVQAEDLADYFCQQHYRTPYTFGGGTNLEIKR — recorded competition rate = 101

Entry S009-F1.35.24 (antibody, human IgG1, kappa, V domains shown, human-murine chimeric antibody, human IgG1/kappa constant regions) VH: EVQLQQSEPELVKPGASVRISCKASGYSFTDYYMHWVKQSPENRLEWIGEINPSTGGTSYNPKFKDKATLTVDKSSSTAYMQLKSLTSEESAVYYCTRYHYYGSSSYVMDYWGQGTSVTVSS VL: QIVLTQSPAILSASPGERVTMTCSASSSVYHMHWFQQKSGTSPKRWVYDTSKLASGVPARFSGSGSGTSYSLTISSMEAEDAATYYCQHWRTNPLTFGAGTKLELKR — recorded competition rate = 62
